Items are presented alongside their recorded cell viability.
Test system: Vero E6
Test: cell viability relative to DMSO; higher = less toxic
Conditions: 72 h; 1 nM
MEASUREMENT_TYPE: cell viability

>>> recorded_measurement("COc1ccc(CC(C)NCC(O)c2ccc(O)c(NC=O)c2)cc1 (stereo not given)")
"93.9%"
>>> recorded_measurement("N[C@H](Cc1cc(I)c(Oc2ccc(O)c(I)c2)c(I)c1)C(=O)O [liothyronine-(isomer)]")
"98.8%"
>>> recorded_measurement("NCC1CC(=O)N(Cc2ccccc2)C1 (stereo not given)")
"94.5%"
>>> recorded_measurement("CN1CCC(=C2c3ccccc3C=Cc3ccccc32)CC1")
"98.8%"
>>> recorded_measurement("O=c1c2ccccc2[se]n1-c1ccccc1")
"97.6%"
>>> recorded_measurement("Fc1ccc2nc(CCC#Cc3ccccn3)cn2c1")
"94.8%"
>>> recorded_measurement("O=C1Nc2ccc(I)cc2C1=Cc1cc(Br)c(O)c(Br)c1")
"97%"
>>> recorded_measurement("O=Cc1ccc(CO)o1")
"103%"
>>> recorded_measurement("Cc1nc(=O)c2cc(CN(C)c3ccc(C(=O)N[C@@H](CCC(=O)O)C(=O)O)s3)ccc2[nH]1")
"98.8%"
>>> recorded_measurement("CN1CCN(CC(=O)N2c3ccccc3C(=O)Nc3cccnc32)CC1 [pirenzepine]")
"103%"

----------
Tested on: Vero E6
Assay: cell viability relative to DMSO; higher = less toxic
Conditions: 72 h; 1000 nM
MEASUREMENT_TYPE: cell viability (%)

>>> recorded_measurement("Cc1cc(=O)oc2c(C=O)c(O)ccc12")
102
>>> recorded_measurement("CC(C)(C)NCC(O)COc1cccc2c1CCC(=O)N2 (stereo not drawn)")
99
>>> recorded_measurement("CC(C)/N=c1\\cc2n(-c3ccc(Cl)cc3)c3ccccc3nc-2cc1Nc1ccc(Cl)cc1")
104
>>> recorded_measurement("CC[C@H]1OC(=O)C[C@@H](O)[C@H](C)[C@@H](O[C@@H]2O[C@H](C)C[C@H](N(C)C)[C@H]2O)[C@@H](CC=O)C[C@@H](C)C(=O)/C=C/[C@]2(C)O[C@H]2[C@@H]1C")
97
>>> recorded_measurement("C[C@@]12CC[C@@H]3[C@@](CC[C@H]4[C@@]3(C)CCC[C@@]4(C)C(=O)O)(CC1=O)C2")
97.5
>>> recorded_measurement("COc1ccc([C@@H]2CC(=O)c3c(O)cc(O)cc3O2)cc1O")
90.1
>>> recorded_measurement("Clc1cccc(N2CCNCC2)c1")
100
>>> recorded_measurement("O=C(O)COc1cccc(-c2ocnc2-c2nc(-c3ccccc3)c(-c3ccccc3)o2)c1")
104
>>> recorded_measurement("Cn1cc(-c2ccc3c(c2)CCN3C(=O)Cc2cccc(C(F)(F)F)c2)c2c(N)ncnc21")
107
>>> recorded_measurement("C1CCC2(CC1)CCNCC2 [4,4-pentamethylenepiperidine]")
104
>>> recorded_measurement("O=C1N[C@@H]2[C@@H](O)[C@@H](O)[C@H](O)[C@@H](CO)N2C1=O")
94.5
>>> recorded_measurement("N[C@H](Cc1cc(I)c(Oc2ccc(O)c(I)c2)c(I)c1)C(=O)O [liothyronine-(isomer)]")
90.7
>>> recorded_measurement("Nc1nc2c(ncn2COCCO)c(=O)[nH]1")
98
>>> recorded_measurement("CCN(CC)CCOc1ccccc1C(=O)CCc1ccccc1")
91.8
>>> recorded_measurement("Cc1ccc2c(c1)[C@]13CCCC[C@@H]1[C@H](C2)N(C)CC3")
98.7
>>> recorded_measurement("CN1CCC(=C2c3ccccc3C=Cc3ccccc32)CC1")
86.1
>>> recorded_measurement("O=C1NCN(c2ccccc2)C12CCN(CC1COc3ccccc3O1)CC2 (stereo not drawn)")
97.9
>>> recorded_measurement("CC(C)NCC(O)COc1cccc2[nH]ccc12 (stereo not drawn)")
98.8

----------
System: U2OS
Experiment: cell viability relative to DMSO; higher = less toxic
Details: 72 h; 100 nM
MEASUREMENT_TYPE: cell viability (%)

>>> recorded_measurement("N=C(Nc1ccccc1)c1cccs1")
95.9
>>> recorded_measurement("COc1ccc(Cl)cc1NC(=O)Nc1cc(C)nc2ccccc12")
100
>>> recorded_measurement("N[C@H](Cc1cc(I)c(Oc2ccc(O)c(I)c2)c(I)c1)C(=O)O [liothyronine-(isomer)]")
96.8
>>> recorded_measurement("CC(C)(C)C(=O)Oc1ccc(S(=O)(=O)Nc2ccccc2C(=O)NCC(=O)O)cc1")
96.2
>>> recorded_measurement("Cc1cc(Cn2cnc3c2C[C@@H](C(=O)O)N(C(=O)C(c2ccccc2)c2ccccc2)C3)ccc1N(C)C")
96
>>> recorded_measurement("CC(C)(O)C(=O)Nc1ccc([N+](=O)[O-])c(C(F)(F)F)c1 [2-hydroxyflutamide]")
103
>>> recorded_measurement("CC[C@H](CC[C@@H](C)[C@H]1CC[C@H]2[C@@H]3CC=C4C[C@@H](O)CC[C@]4(C)[C@H]3CC[C@]12C)C(C)C")
99.6
>>> recorded_measurement("Cn1nnc(-c2ccc(-c3ccc(N4C[C@H](COP(=O)(O)O)OC4=O)cc3F)cn2)n1 [tedizolid-phosphate]")
97.1
>>> recorded_measurement("CCN(CCNC(=O)Nc1ccccc1Br)c1cccc(C)c1")
97
>>> recorded_measurement("O=C(N[C@H](Cc1ccccc1)C(=O)O)c1sc2cc(F)ccc2c1Cl")
94.4
>>> recorded_measurement("CCC(CC)(NC(=O)C(C)C)C(=O)N[C@@H](CCCNC(=N)N)C(=O)NC1(C(=O)NC(c2ccc(F)cc2)c2ccc(F)cc2)CCCC1")
101
>>> recorded_measurement("c1cc(Cc2cnc[nH]2)ccn1")
97.4
>>> recorded_measurement("Fc1ccc(C(c2ccc(F)cc2)N2CCN(C/C=C/c3ccccc3)CC2)cc1")
97.7
>>> recorded_measurement("O=C(/C=C/c1cccc(S(=O)(=O)Nc2ccccc2)c1)NO")
81.9
>>> recorded_measurement("CCCOc1ccc(S(=O)(=O)N2CCN(CCO)CC2)cc1-c1nc2c(CCC)cn(CC)c2c(=O)[nH]1")
99.6
>>> recorded_measurement("O=C(O)c1cc(=O)[nH]c(=O)[nH]1")
104
>>> recorded_measurement("CC(C)NCC(O)COc1cccc2[nH]ccc12 (centres undefined)")
99.5
>>> recorded_measurement("Nc1ccc(S(=O)(=O)NC(=O)c2ccccc2)cc1 [sulfabenzamide]")
102
>>> recorded_measurement("Cc1cc(/C=C2\\SC(=O)N(c3ccccc3)C2=O)c(C)n1-c1cccnc1")
102
>>> recorded_measurement("Cc1nc(=O)c2cc(CN(C)c3ccc(C(=O)N[C@@H](CCC(=O)O)C(=O)O)s3)ccc2[nH]1")
100
>>> recorded_measurement("Clc1ccccc1C(c1ccccc1)(c1ccccc1)n1cccn1")
101
>>> recorded_measurement("Cn1cnc(N)c2ncnc1-2")
98.3
>>> recorded_measurement("Cc1ccc([N+](=O)[O-])cc1O")
101
>>> recorded_measurement("C=CCC1(CC(C)C)C(=O)NC(=O)NC1=O")
98.8
>>> recorded_measurement("CC1(C)OC[C@@H](COC(=O)CCc2ccc(OC[C@@H](O)CNCCNC(=O)N3CCOCC3)cc2)O1")
96.9
>>> recorded_measurement("CC(=O)O[C@H]1C(=O)[C@@]2(C)[C@H]([C@H](OC(=O)c3ccccc3)[C@]3(O)C[C@H](OC(=O)[C@H](O)[C@@H](NC(=O)c4ccccc4)c4ccccc4)C(C)=C1C3(C)C)[C@]1(OC(C)=O)CO[C@@H]1C[C@@H]2O")
32.9
>>> recorded_measurement("CCN(CC)CCOc1ccccc1C(=O)CCc1ccccc1")
97.9
>>> recorded_measurement("CN1C(=O)C(F)=C[C@]2(C)[C@H]3CC[C@]4(C)[C@@H](C(=O)NCc5nc6cccnc6[nH]5)CC[C@H]4[C@@H]3CC[C@@H]12")
98.8
>>> recorded_measurement("CN1CCC[C@@H](CC2c3ccccc3Sc3ccccc32)C1 (racemic)")
99.4
>>> recorded_measurement("COc1cc(OC)cc(-c2ccc3c(-c4ccc(F)cc4)n[nH]c3n2)c1")
97.9
>>> recorded_measurement("CC(C)NCC(O)c1cc(O)cc(O)c1 (centres undefined)")
98.9
>>> recorded_measurement("CC(=O)O[C@]1(C(C)=O)CC[C@H]2[C@@H]3C=C(Cl)C4=CC(=O)CC[C@]4(C)[C@H]3CC[C@@]21C [chlormadinone-acetate]")
96.1
>>> recorded_measurement("O=c1ccn([C@@H]2O[C@H](COP(=O)(O)OP(=O)(O)OP(=O)(O)O)[C@@H](O)[C@H]2O)c(=O)[nH]1")
103
>>> recorded_measurement("Fc1cc(F)c2c(c1)[C@H]1C=CC[C@H]1C(c1cccnc1)N2 (some centres undefined) [Golgicide A]")
105

----------
System: Vero E6
Experiment: relative viability EC50 (midpoint between 100% and the lowest measured viability); higher = less toxic
Details: 72 h
MEASUREMENT_TYPE: relative viability EC50

>>> recorded_measurement("O=c1ccn([C@@H]2O[C@H](COP(=O)(O)OP(=O)(O)OP(=O)(O)O)[C@@H](O)[C@H]2O)c(=O)[nH]1")
"> 10 µM"
>>> recorded_measurement("CC(=O)OC/C=C(C)/C=C/C=C(C)/C=C/C1=C(C)CCCC1(C)C [retinyl-acetate]")
"> 10 µM"
>>> recorded_measurement("NS(=O)(=O)c1cc(C(=O)O)cc(N2CCCC2)c1Oc1ccccc1 [piretanide]")
"> 10 µM"
>>> recorded_measurement("CC1(C)CC[C@]2(C(=O)O)CC[C@]3(C)[C@H](C(=O)C=C4[C@@]5(C)C=C(C#N)C(=O)C(C)(C)[C@@H]5CC[C@]43C)[C@@H]2C1")
"3.43 µM"
